tested-target: Ret kinase (Homo sapiens, UniProt P07949)
Construct: purchased Millipore (KinaseProfiler service); also Reaction Biology Corp. (Kinase Hotspot)
Sequence (P07949 29-1114): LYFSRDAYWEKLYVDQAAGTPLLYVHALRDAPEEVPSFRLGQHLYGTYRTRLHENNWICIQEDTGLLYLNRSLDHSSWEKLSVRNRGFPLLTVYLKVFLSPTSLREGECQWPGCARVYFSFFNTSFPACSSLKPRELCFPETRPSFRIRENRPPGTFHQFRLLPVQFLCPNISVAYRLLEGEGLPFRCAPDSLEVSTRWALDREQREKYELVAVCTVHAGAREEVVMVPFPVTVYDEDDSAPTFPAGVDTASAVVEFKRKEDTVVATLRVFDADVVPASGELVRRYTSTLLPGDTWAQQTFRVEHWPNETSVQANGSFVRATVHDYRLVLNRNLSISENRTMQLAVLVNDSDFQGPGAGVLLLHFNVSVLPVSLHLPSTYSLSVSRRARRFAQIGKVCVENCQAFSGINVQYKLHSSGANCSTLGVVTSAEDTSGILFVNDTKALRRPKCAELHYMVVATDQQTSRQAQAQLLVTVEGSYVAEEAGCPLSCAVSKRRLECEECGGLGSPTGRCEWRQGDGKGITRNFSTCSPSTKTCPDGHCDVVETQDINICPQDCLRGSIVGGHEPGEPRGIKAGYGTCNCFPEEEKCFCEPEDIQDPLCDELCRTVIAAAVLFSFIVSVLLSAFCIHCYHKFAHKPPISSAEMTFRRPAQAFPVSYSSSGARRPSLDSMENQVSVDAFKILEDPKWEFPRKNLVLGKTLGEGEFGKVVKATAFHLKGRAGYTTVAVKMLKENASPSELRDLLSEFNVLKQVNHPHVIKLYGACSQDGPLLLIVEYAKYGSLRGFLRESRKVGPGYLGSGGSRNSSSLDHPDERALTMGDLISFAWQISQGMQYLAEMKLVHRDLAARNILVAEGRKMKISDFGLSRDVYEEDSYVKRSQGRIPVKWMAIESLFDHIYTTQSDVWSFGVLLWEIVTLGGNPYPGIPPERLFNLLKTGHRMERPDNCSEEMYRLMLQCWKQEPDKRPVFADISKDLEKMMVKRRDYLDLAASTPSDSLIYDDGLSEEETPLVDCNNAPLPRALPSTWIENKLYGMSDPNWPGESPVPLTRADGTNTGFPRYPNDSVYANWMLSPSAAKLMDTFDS
assay: Ret kinase inhibition assay (KinaseProfiler / Kinase Hotspot)
Type: biochemical
condition-parameters: compound at 1 μM
property: inhibition at 1 µM

{"compound": "CN1CCN(c2nc(Nc3cc(-c4ccco4)[nH]n3)nc(NC(C)(C)c3ccccc3)n2)CC1", "property": "inhibition at 1 µM", "endpoint-value": "> 90%"}

Record `C[C@@H](Nc1nc(Nc2cc(-c3ccco3)[nH]n2)nc(N2CCN(C)CC2)n1)c1ccc(F)cc1` / Ret kinase (Homo sapiens, UniProt P07949), inhibition at 1 µM recorded as > 90%

Item `CN1CCN(c2nc(Nc3cc(-c4ccco4)[nH]n3)nc(SCc3ccc(F)cc3)n2)CC1` ; assay system Ret kinase (Homo sapiens, UniProt P07949); inhibition at 1 µM reported as < 50%

Record `Cc1cnc(Nc2nc(NCc3ccc4c(c3)OCO4)nc(N3CCN(C)CC3)n2)s1` / Ret kinase (Homo sapiens, UniProt P07949), inhibition at 1 µM recorded as 50 to 90%

Lab note: compound `CN1CCN(c2nc(Nc3cc(-c4ccco4)[nH]n3)nc(SCc3ccccc3)n2)CC1` tested on Ret kinase (Homo sapiens, UniProt P07949); recorded inhibition at 1 µM was < 50%

Kindly note: Ret kinase (Homo sapiens, UniProt P07949), CC(C)c1cnc(Nc2nc(NC(C)c3ccc(F)cc3)nc(N3CCN(C)CC3)n2)s1 (centres unmarked) , inhibition at 1 µM value reported: < 50%

Response field inhibition at 1 µM (Ret kinase (Homo sapiens, UniProt P07949)) for item CC(Nc1nc(Nc2cc(C3CC3)[nH]n2)nc(N2CCN(C)CC2)n1)c1ccc(F)cc1 (centres unmarked) : < 50%

====

tested-target: Aurora-A(h) (Homo sapiens, UniProt O14965)
Construct: purchased Millipore (KinaseProfiler service); also Reaction Biology Corp. (Kinase Hotspot)
Sequence (O14965 whole entry): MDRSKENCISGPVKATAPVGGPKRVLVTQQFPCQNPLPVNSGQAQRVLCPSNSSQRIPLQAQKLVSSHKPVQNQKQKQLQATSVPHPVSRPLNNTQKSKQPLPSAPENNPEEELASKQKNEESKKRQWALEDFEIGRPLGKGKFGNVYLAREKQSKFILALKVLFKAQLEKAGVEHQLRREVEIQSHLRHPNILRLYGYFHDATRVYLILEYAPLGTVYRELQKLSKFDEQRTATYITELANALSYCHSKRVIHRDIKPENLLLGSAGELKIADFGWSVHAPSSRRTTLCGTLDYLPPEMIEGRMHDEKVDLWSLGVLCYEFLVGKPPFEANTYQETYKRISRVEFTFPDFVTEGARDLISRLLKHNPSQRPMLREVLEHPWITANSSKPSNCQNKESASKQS
assay: Aurora-A kinase inhibition assay (KinaseProfiler / Kinase Hotspot)
Type: biochemical
condition-parameters: compound at 1 μM
property: inhibition at 1 µM

Consider the worked cases shown below.
{"molecule": "CN1CCN(c2nc(NCc3ccccc3)nc(Nc3ncc(-c4ccccc4)s3)n2)CC1", "property": "inhibition at 1 µM", "endpoint-value": "< 50%"}
{"molecule": "CN1CCN(c2nc(Nc3cc(-c4ccco4)[nH]n3)nc(NC(C)(C)c3ccccc3)n2)CC1", "property": "inhibition at 1 µM", "endpoint-value": "< 50%"}
{"molecule": "CN1CCN(c2nc(NCc3ccccc3)nc(Nc3cc(-c4ccco4)[nH]n3)n2)CC1", "property": "inhibition at 1 µM", "endpoint-value": "< 50%"}

inhibition at 1 µM of `CN1CCN(c2nc(Nc3cc(-c4ccco4)[nH]n3)nc(OCc3ccccc3)n2)CC1` , assay on Aurora-A(h) (Homo sapiens, UniProt O14965), is < 50%

Reading of inhibition at 1 µM for CC(C)c1cnc(Nc2nc(NC(C)c3ccc(F)cc3)nc(N3CCN(C)CC3)n2)s1 (centres unmarked) with Aurora-A(h) (Homo sapiens, UniProt O14965): < 50%

====

tested-target: Flt3 kinase (Homo sapiens, UniProt P36888)
Construct: purchased Millipore (KinaseProfiler service); also Reaction Biology Corp. (Kinase Hotspot)
Sequence (P36888 27-993): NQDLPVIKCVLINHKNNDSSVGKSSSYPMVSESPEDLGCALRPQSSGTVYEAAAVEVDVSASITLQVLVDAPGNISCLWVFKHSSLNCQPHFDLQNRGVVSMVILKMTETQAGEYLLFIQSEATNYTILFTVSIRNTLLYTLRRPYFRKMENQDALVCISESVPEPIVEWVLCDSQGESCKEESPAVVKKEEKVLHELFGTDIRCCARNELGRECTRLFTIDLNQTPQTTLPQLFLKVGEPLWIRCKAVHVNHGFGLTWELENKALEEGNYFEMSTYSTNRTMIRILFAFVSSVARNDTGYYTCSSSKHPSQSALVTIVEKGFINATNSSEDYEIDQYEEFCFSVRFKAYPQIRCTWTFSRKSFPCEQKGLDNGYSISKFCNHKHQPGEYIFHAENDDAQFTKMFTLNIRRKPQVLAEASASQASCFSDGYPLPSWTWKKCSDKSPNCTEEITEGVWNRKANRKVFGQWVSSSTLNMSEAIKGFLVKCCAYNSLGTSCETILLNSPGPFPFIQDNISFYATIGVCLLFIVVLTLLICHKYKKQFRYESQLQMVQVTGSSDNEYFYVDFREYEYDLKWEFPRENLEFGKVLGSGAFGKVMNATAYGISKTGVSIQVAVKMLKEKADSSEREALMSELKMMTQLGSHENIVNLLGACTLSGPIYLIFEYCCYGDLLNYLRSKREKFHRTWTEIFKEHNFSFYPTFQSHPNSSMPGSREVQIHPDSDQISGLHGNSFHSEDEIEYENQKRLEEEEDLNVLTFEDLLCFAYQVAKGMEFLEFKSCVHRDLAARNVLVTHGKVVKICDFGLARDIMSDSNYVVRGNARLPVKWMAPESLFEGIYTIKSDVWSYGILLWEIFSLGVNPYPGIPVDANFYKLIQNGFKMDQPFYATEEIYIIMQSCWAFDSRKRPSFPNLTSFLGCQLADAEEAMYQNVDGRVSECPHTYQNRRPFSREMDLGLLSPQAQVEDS
assay: Flt3 kinase inhibition assay (KinaseProfiler / Kinase Hotspot)
Type: biochemical
condition-parameters: compound at 1 μM
property: inhibition at 1 µM

Looking up `CN1CCN(c2nc(NCc3ccccc3)nc(Nc3ncc(-c4ccccc4)s3)n2)CC1` , I see its inhibition at 1 µM listed as < 50%

Value of measured inhibition at 1 µM for the entry `CN1CCN(c2nc(NCc3ccc(F)cc3)nc(Nc3cc(-c4ccco4)[nH]n3)n2)CC1` : > 90%

Measured inhibition at 1 µM of CC(C)c1cnc(Nc2nc(NC(C)c3ccc(F)cc3)nc(N3CCN(C)CC3)n2)s1 (stereo not drawn) : > 90%

Lab book: inhibition at 1 µM of `CN1CCN(c2nc(Nc3cc(-c4ccco4)[nH]n3)nc(NC(C)(C)c3ccccc3)n2)CC1` noted as > 90%

The value of inhibition at 1 µM measured for the compound CC(Nc1nc(Nc2cc(C3CC3)[nH]n2)nc(N2CCN(C)CC2)n1)c1ccc(F)cc1 (stereo not drawn) turned out to be 50 to 90%

// inhibition at 1 µM value for `C[C@@H](Nc1nc(Nc2cc(-c3ccco3)[nH]n2)nc(N2CCN(C)CC2)n1)c1ccc(F)cc1` : > 90%

Documented inhibition at 1 µM of `CN1CCN(c2nc(NCc3ccccc3)nc(Nc3cc(-c4ccco4)[nH]n3)n2)CC1` : > 90%

The value of inhibition at 1 µM measured for the compound `CN1CCN(c2nc(Nc3cc(-c4ccco4)[nH]n3)nc(N(C)Cc3ccc(F)cc3)n2)CC1` turned out to be > 90%

// inhibition at 1 µM lookup, compound = `CN1CCN(c2nc(Nc3cc(-c4ccco4)[nH]n3)nc(OCc3ccccc3)n2)CC1` , result: > 90%

====

tested-target: TrkA Kinase (Homo sapiens, UniProt P04629)
Construct: purchased Millipore (KinaseProfiler service); also Reaction Biology Corp. (Kinase Hotspot)
Sequence (P04629 33-796): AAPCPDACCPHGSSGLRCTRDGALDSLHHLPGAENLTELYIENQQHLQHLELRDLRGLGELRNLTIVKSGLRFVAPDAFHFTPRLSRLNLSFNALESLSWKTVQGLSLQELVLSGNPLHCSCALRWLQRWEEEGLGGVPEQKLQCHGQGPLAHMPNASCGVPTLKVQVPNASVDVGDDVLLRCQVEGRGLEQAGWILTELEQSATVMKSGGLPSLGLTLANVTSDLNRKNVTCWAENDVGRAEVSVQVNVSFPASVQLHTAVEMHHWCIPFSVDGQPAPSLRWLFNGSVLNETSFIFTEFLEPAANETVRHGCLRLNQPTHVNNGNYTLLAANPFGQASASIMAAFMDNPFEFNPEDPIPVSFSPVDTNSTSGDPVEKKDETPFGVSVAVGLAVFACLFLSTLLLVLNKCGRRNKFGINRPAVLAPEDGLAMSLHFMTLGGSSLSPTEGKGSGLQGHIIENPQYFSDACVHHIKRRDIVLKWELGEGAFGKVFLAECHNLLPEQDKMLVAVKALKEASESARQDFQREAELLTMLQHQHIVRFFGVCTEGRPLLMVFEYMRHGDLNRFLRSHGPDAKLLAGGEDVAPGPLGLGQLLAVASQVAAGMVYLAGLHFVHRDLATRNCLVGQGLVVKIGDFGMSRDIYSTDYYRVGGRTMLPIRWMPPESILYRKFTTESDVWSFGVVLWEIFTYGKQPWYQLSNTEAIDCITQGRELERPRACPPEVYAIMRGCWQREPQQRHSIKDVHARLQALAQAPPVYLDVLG
assay: TrkA kinase inhibition assay (KinaseProfiler / Kinase Hotspot)
Type: biochemical
condition-parameters: compound at 1 μM
property: inhibition at 1 µM

Consider the worked cases shown below.
{"compound": "CC(C)c1cnc(Nc2nc(NC(C)c3ccc(F)cc3)nc(N3CCN(C)CC3)n2)s1 (centres unmarked) [Example 2]", "endpoint-value": "> 90%"}
{"compound": "Cc1cnc(Nc2nc(NCc3ccc(F)cc3)nc(N3CCN(C)CC3)n2)s1 [Example 8]", "endpoint-value": "> 90%"}
{"compound": "CC(C)c1cnc(Nc2nc(N[C@@H](C)c3ccc(F)cc3)nc(N3CCN(C)CC3)n2)s1 [Example 3]", "endpoint-value": "> 90%"}
{"compound": "C[C@@H](Nc1nc(Nc2cc(-c3ccco3)[nH]n2)nc(N2CCN(C)CC2)n1)c1ccc(F)cc1 [Example 18]", "endpoint-value": "> 90%"}
{"compound": "Cc1cnc(Nc2nc(NCc3ccc4c(c3)OCO4)nc(N3CCN(C)CC3)n2)s1 [Example 6]", "endpoint-value": "> 90%"}

Observed inhibition at 1 µM, TrkA Kinase (Homo sapiens, UniProt P04629), CN1CCN(c2nc(NCc3ccc(F)cc3)nc(Nc3cc(-c4ccco4)[nH]n3)n2)CC1 [Example 9] : > 90%

Query CN1CCN(c2nc(NCc3ccccc3)nc(Nc3cc(-c4ccco4)[nH]n3)n2)CC1 [Example 12] on TrkA Kinase (Homo sapiens, UniProt P04629); inhibition at 1 µM returned: > 90%

For CN1CCN(c2nc(Nc3cc(-c4ccco4)[nH]n3)nc(SCc3ccccc3)n2)CC1 [Example 15] on TrkA Kinase (Homo sapiens, UniProt P04629), measured inhibition at 1 µM was > 90%

====

tested-target: c-Src kinase (Homo sapiens, UniProt P12931)
Construct: purchased Millipore (KinaseProfiler service); also Reaction Biology Corp. (Kinase Hotspot)
Sequence (P12931 whole entry): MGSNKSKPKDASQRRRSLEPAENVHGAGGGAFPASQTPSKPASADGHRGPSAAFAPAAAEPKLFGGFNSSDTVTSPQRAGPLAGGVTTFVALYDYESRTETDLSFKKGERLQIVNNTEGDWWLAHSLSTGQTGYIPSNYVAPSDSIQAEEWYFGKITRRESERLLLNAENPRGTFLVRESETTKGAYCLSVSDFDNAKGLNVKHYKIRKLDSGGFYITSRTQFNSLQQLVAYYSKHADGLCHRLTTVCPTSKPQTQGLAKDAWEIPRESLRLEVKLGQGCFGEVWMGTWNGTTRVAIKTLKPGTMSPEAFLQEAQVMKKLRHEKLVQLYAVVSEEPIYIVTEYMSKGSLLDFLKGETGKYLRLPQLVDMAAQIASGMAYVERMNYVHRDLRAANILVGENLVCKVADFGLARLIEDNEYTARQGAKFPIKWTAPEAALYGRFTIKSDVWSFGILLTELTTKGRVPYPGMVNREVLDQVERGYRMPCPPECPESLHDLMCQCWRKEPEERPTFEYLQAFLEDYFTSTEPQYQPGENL
assay: c-Src kinase inhibition assay (KinaseProfiler / Kinase Hotspot)
Format: biochemical
condition-parameters: compound at 1 μM; read-out: % Inhibition @1 μM cSrc
Known inhibition at 1 µM of a selection of molecules

{"molecule": "CC(C)c1cnc(Nc2nc(NC(C)c3ccc(F)cc3)nc(N3CCN(C)CC3)n2)s1 (stereo not shown) [Example 2]", "tested-target": "c-Src kinase (Homo sapiens, UniProt P12931)", "inhibition at 1 µM": "> 90%"}
{"molecule": "CC(C)c1cnc(Nc2nc(N[C@@H](C)c3ccc(F)cc3)nc(N3CCN(C)CC3)n2)s1 [Example 3]", "tested-target": "c-Src kinase (Homo sapiens, UniProt P12931)", "inhibition at 1 µM": "> 90%"}
{"molecule": "CN1CCN(c2nc(Nc3cc(-c4ccco4)[nH]n3)nc(SCc3ccc(F)cc3)n2)CC1 [Example 11]", "tested-target": "c-Src kinase (Homo sapiens, UniProt P12931)", "inhibition at 1 µM": "50 to 90%"}

Kindly note: c-Src kinase (Homo sapiens, UniProt P12931), CN1CCN(c2nc(NCc3ccccc3)nc(Nc3cc(-c4ccco4)[nH]n3)n2)CC1 [Example 12] , inhibition at 1 µM value reported: 50 to 90%

====

tested-target: c-Src kinase (Homo sapiens)
Construct: purchased Millipore (KinaseProfiler service); also Reaction Biology Corp. (Kinase Hotspot)
assay: c-Src kinase inhibition assay (KinaseProfiler / Kinase Hotspot)
Type: biochemical
condition-parameters: compound at 1 μM; read-out: % Inhibition @1 μM cSrc
Experimental: This example illustrated c-Src kinase, Aurora-A kinase, Flt3 kinase, Ret kinase and TrkA Kinase Assays of selected Compounds from this invention (referred to Daniele Fancelli et al, J. Med. Chem., 2006, 49 (24), pp 7247-7251). […] Also Kinase Hotspot^SM kinase assay was used to test the compounds for IC50 or % inhibitions (Reaction Biology Corp.). Inhibitor IC50 values were determined by titration of compound at the optimal kinase concentration (Kinase EC50).
property: inhibition at 1 µM

{"compound": "CN1CCN(c2nc(NCc3ccccc3)nc(Nc3ncc(-c4ccccc4)s3)n2)CC1", "tested-target": "c-Src kinase (Homo sapiens)", "property": "inhibition at 1 µM", "endpoint-value": "< 50%"}
{"compound": "CN1CCN(c2nc(NCc3ccc(F)cc3)nc(Nc3cc(-c4ccco4)[nH]n3)n2)CC1", "tested-target": "c-Src kinase (Homo sapiens)", "property": "inhibition at 1 µM", "endpoint-value": "50 to 90%"}
{"compound": "Cc1cnc(Nc2nc(NCc3ccc4c(c3)OCO4)nc(N3CCN(C)CC3)n2)s1", "tested-target": "c-Src kinase (Homo sapiens)", "property": "inhibition at 1 µM", "endpoint-value": "50 to 90%"}
{"compound": "CC(Nc1nc(Nc2cc(C3CC3)[nH]n2)nc(N2CCN(C)CC2)n1)c1ccc(F)cc1 (stereo not shown)", "tested-target": "c-Src kinase (Homo sapiens)", "property": "inhibition at 1 µM", "endpoint-value": "50 to 90%"}
{"compound": "C[C@@H](Nc1nc(Nc2cc(-c3ccco3)[nH]n2)nc(N2CCN(C)CC2)n1)c1ccc(F)cc1", "tested-target": "c-Src kinase (Homo sapiens)", "property": "inhibition at 1 µM", "endpoint-value": "> 90%"}
{"compound": "CN1CCN(c2nc(Nc3cc(-c4ccco4)[nH]n3)nc(N(C)Cc3ccc(F)cc3)n2)CC1", "tested-target": "c-Src kinase (Homo sapiens)", "property": "inhibition at 1 µM", "endpoint-value": "50 to 90%"}
{"compound": "CN1CCN(c2nc(Nc3cc(-c4ccco4)[nH]n3)nc(SCc3ccccc3)n2)CC1", "tested-target": "c-Src kinase (Homo sapiens)", "property": "inhibition at 1 µM", "endpoint-value": "< 50%"}
{"compound": "CN1CCN(c2nc(Nc3cc(-c4ccco4)[nH]n3)nc(NC(C)(C)c3ccccc3)n2)CC1", "tested-target": "c-Src kinase (Homo sapiens)", "property": "inhibition at 1 µM", "endpoint-value": "< 50%"}

Value of measured inhibition at 1 µM for the entry `C[C@H](Nc1nc(Nc2cc(-c3ccco3)[nH]n2)nc(N2CCN(C)CC2)n1)c1ccc(F)cc1` : < 50%

`Cc1cnc(Nc2nc(NCc3ccc(F)cc3)nc(N3CCN(C)CC3)n2)s1` has a reported inhibition at 1 µM of 50 to 90%

Numbers sourced from patent US9409903B2.
